- System: HT-29
- measurement.protocol: Cytotoxicity against human HT-29 cells after 24 hrs by MTT assay
- Type: functional, cell-based
- experimental.setup: HT-29, 24 h
readout.type: IC50

Use these answered entries as a reference point.
> print(dat)
                                smiles.repr  target  data.value
1  C[C@H]1O[C@]1(C)C(=O)C[C@@H]1[C@@]2(C)[C@@H](O)CCC(C)(C)[C@]2(O)CC[C@@]1(C)O   HT-29     > 10 µM
2  C=C([C@@H]1C[C@H]2[C@@](C)(CC[C@@]3(O)C(C)(C)CCC(=O)[C@]23C)O1)[C@@H](C)O   HT-29     > 10 µM
3  C=C([C@H](C)O)[C@@H]1C[C@H]2[C@@](C)(CC[C@@]3(O)C(C)(C)CCC[C@]23C)O1   HT-29     > 10 µM
4  C=C([C@@H]1C[C@H]2[C@@](C)(CC[C@@]3(O)C(C)(C)CCC[C@]23C)O1)[C@@H](C)O   HT-29     > 10 µM
5  C[C@@H]1O[C@@]1(C)C(=O)C[C@@H]1[C@@]2(C)[C@@H](O)CCC(C)(C)[C@]2(O)CC[C@@]1(C)O   HT-29     > 10 µM

Qu. If you can, please state the reported IC50 value of `C=C([C@H](C)O)[C@@H]1C[C@H]2[C@@](C)(CC[C@@]3(O)C(C)(C)CCC(=O)[C@]23C)O1` .
Ans. > 10 µM

Qu. Next: `COc1cccc2c1C(=O)c1c(O)c3c(c(O)c1C2=O)C[C@@](O)(C(=O)CO)C[C@@H]3O[C@H]1C[C@H](N)[C@H](O)[C@H](C)O1`
Ans. 1.7 µM

Qu. Try the compound `C=C([C@@H]1C[C@@H]2[C@@]3(C)[C@@H](O)CCC(C)(C)[C@]3(O)CC[C@@]2(C)O1)[C@@H](C)O`
Ans. > 10 µM

Qu. And `C[C@H]1O[C@]1(C)C(=O)C[C@H]1[C@](C)(O)CC[C@@]2(O)C(C)(C)CCC[C@]12C` ?
Ans. > 10 µM

Qu. Likewise for `C[C@@H]1O[C@@]1(C)C(=O)C[C@H]1[C@](C)(O)CC[C@@]2(O)C(C)(C)CCC[C@]12C` ?
Ans. > 10 µM

Qu. Now consider `C=C(C(C)=O)[C@@H]1C[C@H]2[C@@](C)(CC[C@@]3(O)C(C)(C)CCC[C@]23C)O1` .
Ans. 5.2 µM

Qu. One more compound: `C=C(C(C)=O)[C@@H]1C[C@H]2[C@@](C)(CC[C@@]3(O)C(C)(C)CCC(=O)[C@]23C)O1`
Ans. 6.8 µM

Qu. Now try `C/C=C(\C)C(=O)C[C@@H]1[C@@]2(C)[C@@H](O)CCC(C)(C)[C@]2(O)CC[C@@]1(C)O` .
Ans. > 10 µM

Qu. And for `C/C=C(\C)C(=O)C[C@]1(O)[C@@]2(C)CCCC(C)(C)[C@]2(O)CC[C@@]1(C)O` ?
Ans. > 10 µM

Qu. What do we get for `CC1(C)CCC[C@]2(C)C3=CC(=O)O[C@]3(C)CC[C@@]12O` ?
Ans. > 10 µM

Qu. Please do the same for `C=C([C@H](C)O)[C@@H]1C[C@@H]2[C@@]3(C)[C@@H](O)CCC(C)(C)[C@]3(O)CC[C@@]2(C)O1` as well.
Ans. > 10 µM

Qu. Now try `C/C=C(\C)C(=O)C[C@H]1[C@](C)(O)CC[C@@]2(O)C(C)(C)CCC[C@]12C` .
Ans. > 10 µM

====

- Test system: HT-29
- measurement.protocol: Cytotoxicity against human HT-29 cells after 24 hrs by MTT assay
- Format: functional, cell-based
- experimental.setup: HT-29, 24 h
readout.type: pIC50
Lab note: report pIC50 as minus log10 of the concentration in molar units, number only.

> print(dat)
                                smiles.repr  readout.type  data.value
1  C=C(C(C)=O)[C@H]1C[C@@H]2[C@@]3(C)[C@@H](O)CCC(C)(C)[C@]3(O)CC[C@@]2(C)O1         pIC50        5.15

Here is another molecule to look at.
Qu. Please report the recorded pIC50 for `C=C(C(C)=O)[C@@H]1C[C@@H]2[C@@]3(C)[C@@H](O)CCC(C)(C)[C@]3(O)CC[C@@]2(C)O1` .
Ans. 5.24

====

- System: A2780
- measurement.protocol: Cytotoxicity against human A2780 cells after 24 hrs by MTT assay
- Assay type: functional, cell-based
- experimental.setup: A2780, 24 h
readout.type: pIC50
Field pIC50 (float): negative decimal logarithm of the concentration in molar.

> print(dat)
                                smiles.repr  data.value
1  C=C(C(C)=O)[C@@H]1C[C@H]2[C@@](C)(CC[C@@]3(O)C(C)(C)CCC[C@]23C)O1        5.07

Qu. For `C=C(C(C)=O)[C@@H]1C[C@H]2[C@@](C)(CC[C@@]3(O)C(C)(C)CCC(=O)[C@]23C)O1` , what is its reported pIC50?
Ans. 5.11

====

- Tested on: MDA-MB-231
- measurement.protocol: Cytotoxicity against human MDA-MB-231 cells after 24 hrs by MTT assay
- Assay type: functional, cell-based
- experimental.setup: MDA-MB-231, 24 h
readout.type: IC50

# example entries with known answers
> print(dat)
                                    compound      target  data.value
 1  C/C=C(\C)[C@@H]1C[C@H]2[C@@](C)(CC[C@@]3(O)C(C)(C)CCC(=O)[C@]23C)O1  MDA-MB-231     > 10 µM
 2  C=C([C@@H]1C[C@@H]2[C@@]3(C)[C@@H](O)CCC(C)(C)[C@]3(O)CC[C@@]2(C)O1)[C@@H](C)O  MDA-MB-231     > 10 µM
 3  C[C@H]1O[C@]1(C)C(=O)C[C@H]1[C@](C)(O)CC[C@@]2(O)C(C)(C)CCC[C@]12C  MDA-MB-231     > 10 µM
 4  C/C=C(\C)C(=O)C[C@]1(O)[C@@]2(C)CCCC(C)(C)[C@]2(O)CC[C@@]1(C)O  MDA-MB-231     > 10 µM
 5  C=C([C@H](C)O)[C@@H]1C[C@H]2[C@@](C)(CC[C@@]3(O)C(C)(C)CCC(=O)[C@]23C)O1  MDA-MB-231     > 10 µM
 6  CC1(C)CCC[C@]2(C)C3=CC(=O)O[C@]3(C)CC[C@@]12O  MDA-MB-231     > 10 µM
 7  C/C=C(\C)[C@@H]1C[C@H]2[C@@](C)(CC[C@@]3(O)C(C)(C)CCC[C@]23C)O1  MDA-MB-231     > 10 µM
 8  C=C(C(C)=O)[C@@H]1C[C@H]2[C@@](C)(CC[C@@]3(O)C(C)(C)CCC[C@]23C)O1  MDA-MB-231      4.2 µM
 9  C=C(C(C)=O)[C@@H]1C[C@H]2[C@@](C)(CC[C@@]3(O)C(C)(C)CCC(=O)[C@]23C)O1  MDA-MB-231        5 µM
10  C/C=C(\C)C(=O)C[C@@H]1[C@@]2(C)[C@@H](O)CCC(C)(C)[C@]2(O)CC[C@@]1(C)O  MDA-MB-231     > 10 µM

Qu. State its IC50 on MDA-MB-231: `C=C([C@H](C)O)[C@@H]1C[C@H]2[C@@](C)(CC[C@@]3(O)C(C)(C)CCC[C@]23C)O1`
Ans. > 10 µM

Qu. Subsequent entry: `C=C([C@@H]1C[C@H]2[C@@](C)(CC[C@@]3(O)C(C)(C)CCC[C@]23C)O1)[C@@H](C)O`
Ans. > 10 µM

Qu. Would you mind doing `C[C@@H]1O[C@@]1(C)C(=O)C[C@H]1[C@](C)(O)CC[C@@]2(O)C(C)(C)CCC[C@]12C` as well?
Ans. > 10 µM

Qu. What about `C/C=C(\C)C(=O)C[C@H]1[C@](C)(O)CC[C@@]2(O)C(C)(C)CCC[C@]12C` ?
Ans. > 10 µM

====

The entries below come with measured IC50 values attached.
- Tested on: MDA-MB-231
- measurement.protocol: Cytotoxicity against human MDA-MB-231 cells after 24 hrs by MTT assay
- Format: functional, cell-based
- experimental.setup: MDA-MB-231, 24 h

Recorded results for 2 molecules are shown here.
> print(dat)
                                smiles.repr  data.value
1  C[C@@H]1O[C@@]1(C)C(=O)C[C@@H]1[C@@]2(C)[C@@H](O)CCC(C)(C)[C@]2(O)CC[C@@]1(C)O     > 10 µM
2  C=C(C(C)=O)[C@@H]1C[C@@H]2[C@@]3(C)[C@@H](O)CCC(C)(C)[C@]3(O)CC[C@@]2(C)O1      4.1 µM

Qu. Entry `C=C(C(C)=O)[C@H]1C[C@@H]2[C@@]3(C)[C@@H](O)CCC(C)(C)[C@]3(O)CC[C@@]2(C)O1` , system MDA-MB-231: what IC50 was measured?
Ans. 5.4 µM

Qu. Now try `COc1cccc2c1C(=O)c1c(O)c3c(c(O)c1C2=O)C[C@@](O)(C(=O)CO)C[C@@H]3O[C@H]1C[C@H](N)[C@H](O)[C@H](C)O1` .
Ans. 0.6 µM

Qu. Let us now turn to `C=C([C@@H]1C[C@H]2[C@@](C)(CC[C@@]3(O)C(C)(C)CCC(=O)[C@]23C)O1)[C@@H](C)O`
Ans. > 10 µM

Qu. Next entry: `C[C@H]1O[C@]1(C)C(=O)C[C@@H]1[C@@]2(C)[C@@H](O)CCC(C)(C)[C@]2(O)CC[C@@]1(C)O`
Ans. > 10 µM

Qu. Now consider `C=C([C@H](C)O)[C@@H]1C[C@@H]2[C@@]3(C)[C@@H](O)CCC(C)(C)[C@]3(O)CC[C@@]2(C)O1` .
Ans. > 10 µM

Reference source for all entries: ChEMBL document CHEMBL3600372
